Sourced from the RNAGym collection of RNA variant scans (doi:10.1073/pnas.2313332121)

B1: TPR t1 (parent)
chain: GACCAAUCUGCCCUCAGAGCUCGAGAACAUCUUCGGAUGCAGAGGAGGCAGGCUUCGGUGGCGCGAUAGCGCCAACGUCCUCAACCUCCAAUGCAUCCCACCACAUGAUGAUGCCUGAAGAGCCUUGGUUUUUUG

- Variants of: B1
- Procedure text: polymerase ribozyme fitness, log enrichment relative to wild type (log ratio); higher = more active; in vitro selection for triplet polymerase activity
polymerase ribozyme fitness (log ratio) for assorted variants
Metric name: polymerase ribozyme fitness (log ratio)

>>> result_number("A5G G57A G63A")
-2.06
>>> result_number("G36C A50C C114U")
-6.09
>>> result_number("U38G U106A")
-1.09
>>> result_number("G36A U55G G120C")
0.249
>>> result_number("U54C C80A U125A")
-2.52
>>> result_number("G113A U125C")
-1.17
>>> result_number("C20A G63A A74C U96A")
-5.16
>>> result_number("U14C A46U G60C U116C G117A")
-5.66
>>> result_number("C28U A46G U129G")
-2.5
>>> result_number("C8A G36U U132A")
-1.09
>>> result_number("C73A G122A")
-0.64
>>> result_number("C72G C104U")
-0.348
>>> result_number("U9A A26G G47A C49U C82G G107U")
-6.22
>>> result_number("C12U A46U A121C")
-0.0492
>>> result_number("A18G C89A C114G U133A")
-6.53
>>> result_number("G48U A50U U78C A90U C123A")
-2.26
>>> result_number("G47A G93U")
-2.71
>>> result_number("C13U G42U G48A U129A")
-2.82
>>> result_number("U54A C62U C72G")
-1.24
>>> result_number("C13A G48A")
-2.23
>>> result_number("C11G G127C")
-0.995
>>> result_number("A5C A46U")
-1.95
>>> result_number("C12U C86A")
0.101
>>> result_number("U78G C85A G120A")
-0.262
>>> result_number("G35A G120C")
-2.79
>>> result_number("C11G C13A G117C U132A U134G")
-2.05
>>> result_number("C3A C97A C114U")
-5.53
>>> result_number("A18C G19A C40U C49U A50U C89U C124U")
-5.69
>>> result_number("U7G C11U C49A C56A G107U C114U")
-4.37
>>> result_number("G60A C89A A105U C114U")
-6.37
>>> result_number("A43G C64U")
-1.23
>>> result_number("U9A G23A G25C A43C G51A A68G U106A C123U")
-6.69
>>> result_number("C12G G52U")
-0.405
>>> result_number("C12G C22U")
-3.18
>>> result_number("C11A C28G G77U C98U G110U G135U")
-3.7
>>> result_number("C94A C124A U125C U131A")
-0.191
>>> result_number("G60A U112A")
1.13
